- assay-overview: In vitro metabolism in liver microsomes, human
- Format: in vitro ADME
- condition: human, liver microsomes, pH 7.4, human liver microsomes, 37° C., NADPH; read-out: Half-life obtained after incubation in liver microsomes of human (converted)
observation-type: half-life at 0.193 µM (h)
Express it in h; write the number only.

q: Query: half-life at 0.193 µM; subject: O=C(NCCCNC(=O)C(c1ccccc1)c1ccccc1)c1nc(=O)c2ccccc2[nH]1 [JNC-440, reference compound]
a: 0.813

q: What do you get for `CCN1CCN(Cc2ccc(NC(=O)NCCCCC(=O)Nc3ccc(F)cc3)cc2)CC1` ?
a: 3.35

q: Cool, now `CCN1CCN(Cc2ccc(NC(=O)NCCCCC(=O)Nc3ccccc3)cc2)CC1`
a: 2.44

Values were extracted from patent US12552773B2.
